Data origin, for the record: patent US20240336572A1

Target: AMPK 111 (Homo sapiens, UniProt Q13131+Q9Y478)
Construct: open reading frames encoding the full-length α1, β1 and δ1 subunits of human AMPK
Sequence (Q13131 whole entry, one chain of several): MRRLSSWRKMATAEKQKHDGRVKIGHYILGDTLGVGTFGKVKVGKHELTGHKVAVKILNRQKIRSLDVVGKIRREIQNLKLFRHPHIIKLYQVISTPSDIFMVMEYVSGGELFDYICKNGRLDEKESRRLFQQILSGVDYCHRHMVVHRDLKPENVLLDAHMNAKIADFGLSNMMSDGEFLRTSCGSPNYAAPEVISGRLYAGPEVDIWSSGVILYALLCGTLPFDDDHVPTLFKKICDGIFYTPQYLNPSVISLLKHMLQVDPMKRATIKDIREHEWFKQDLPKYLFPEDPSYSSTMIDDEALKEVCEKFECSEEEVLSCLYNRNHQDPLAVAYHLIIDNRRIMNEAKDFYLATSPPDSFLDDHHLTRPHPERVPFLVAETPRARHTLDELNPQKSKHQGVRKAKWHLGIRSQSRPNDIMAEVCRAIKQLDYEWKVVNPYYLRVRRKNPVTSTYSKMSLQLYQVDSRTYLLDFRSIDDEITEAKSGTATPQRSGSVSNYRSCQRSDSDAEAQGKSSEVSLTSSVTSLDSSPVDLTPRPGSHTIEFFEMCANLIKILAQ
Sequence (Q9Y478 whole entry, one chain of several): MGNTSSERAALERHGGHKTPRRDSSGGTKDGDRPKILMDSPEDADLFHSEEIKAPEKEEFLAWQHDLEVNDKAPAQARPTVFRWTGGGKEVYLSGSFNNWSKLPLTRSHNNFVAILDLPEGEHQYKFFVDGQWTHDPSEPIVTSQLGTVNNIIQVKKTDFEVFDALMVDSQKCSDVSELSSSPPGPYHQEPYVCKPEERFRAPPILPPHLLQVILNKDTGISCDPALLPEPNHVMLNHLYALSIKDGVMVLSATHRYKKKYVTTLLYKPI
Test: Biochemical profiling of AMPK activators by AMPK111 (HTRF/TR-FRET assay, SAMS peptide, PP2A dephosphorylation protection)
Settings: phosphorylated AMPK 111 (α1β1δ1 as printed); 11 point dilution, duplicate; 4-parameter fit
pEC50: −log10 of the molar value.
result type: pEC50

* Cc1ccc(-c2ccc(-c3cc4c(CCC(=O)O)n[nH]c4cc3Cl)cc2)s1 [Example 56] | 6.44
* O=C(O)CCc1n[nH]c2cc(Cl)c(-c3ccc(-c4ccccc4O)cc3)cc12 [Example 1] | 7.33
* Cc1cncc(O)c1-c1ccc(-c2cc3c(CCC(=O)O)n[nH]c3cc2Cl)cc1 [Example 27] | 8.15
* Cc1cccc(O)c1-c1ccc(-c2cc3c(CCC(=O)O)n[nH]c3cc2Cl)cc1 [Example 15] | 7.46
* O=C(O)CCc1n[nH]c2cc(Cl)c(-c3ccc(-c4cnsc4)cc3)cc12 [Example 65] | 6.58
* NC(=O)CSc1ccc(-c2ccc(-c3cc4c(CCC(=O)O)n[nH]c4cc3Cl)cc2)cc1 [Example 17] | 7.47
* COc1c(Cl)ccc(-c2ccc(-c3cc4c(CCC(=O)O)n[nH]c4cc3Cl)cc2)c1O [Example 28] | 6.56
* COC(=O)c1ccc(-c2ccc(-c3cc4c(CCC(=O)O)n[nH]c4cc3Cl)cc2)c(O)c1 [Example 31] | 7.24
* COc1ccc(C)c(-c2ccc(-c3cc4c(CCC(=O)O)n[nH]c4cc3Cl)cc2)c1O [Example 62] | 7.60
* COc1ccc(C)c(-c2ccc(-c3cc4c(CCCC(=O)O)n[nH]c4cc3Cl)cc2)c1O [Example 78] | 7.03
* CN(C)C(=O)c1ccc(-c2ccc(-c3cc4c(CCC(=O)O)n[nH]c4cc3Cl)cc2)cc1 [Example 29] | 7.34
* COc1cccc(-c2ccc(-c3cc4c(CCC(=O)O)n[nH]c4cc3Cl)cc2)c1O [Example 2] | 7.54
* COc1nc(-c2ccc(-c3cc4c(CCC(=O)O)n[nH]c4cc3Cl)cc2)cs1 [Example 59] | 6.22
* COc1cccc(-c2ccc(-c3cc4c(CCCC(=O)O)n[nH]c4cc3Cl)cc2)c1O [Example 74] | 7.04
* Cc1cccc(O)c1-c1ccc(-c2cc3c(CCCC(=O)O)n[nH]c3cc2Cl)cc1 [Example 75] | 7.13
* COc1ccc(Cl)c(-c2ccc(-c3cc4c(CCC(=O)O)n[nH]c4cc3Cl)cc2)c1O [Example 14] | 7.35

====

Molecular target: AMPK 221 (Homo sapiens, UniProt O43741+P54646)
Construct: open reading frames encoding the full-length α2, β2 and δ1 subunits of human AMPK; made in house; host or cells: E. coli BL21-CodonPlus (DE3)-RIPL, pET-14b
Sequence (P54646 whole entry): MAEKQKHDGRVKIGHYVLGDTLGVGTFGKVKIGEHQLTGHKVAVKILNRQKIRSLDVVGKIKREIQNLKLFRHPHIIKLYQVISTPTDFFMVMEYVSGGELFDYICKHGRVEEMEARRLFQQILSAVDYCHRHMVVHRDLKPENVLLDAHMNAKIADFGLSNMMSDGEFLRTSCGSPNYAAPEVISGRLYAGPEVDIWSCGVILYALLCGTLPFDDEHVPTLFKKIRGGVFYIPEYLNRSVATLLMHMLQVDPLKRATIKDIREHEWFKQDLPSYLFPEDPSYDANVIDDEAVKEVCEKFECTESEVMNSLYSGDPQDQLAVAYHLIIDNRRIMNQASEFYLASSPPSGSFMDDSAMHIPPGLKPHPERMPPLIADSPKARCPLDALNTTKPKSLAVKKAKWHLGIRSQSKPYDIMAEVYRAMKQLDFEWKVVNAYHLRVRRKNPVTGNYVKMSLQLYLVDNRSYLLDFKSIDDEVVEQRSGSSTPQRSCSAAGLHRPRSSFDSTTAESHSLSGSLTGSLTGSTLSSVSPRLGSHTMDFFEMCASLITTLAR
Sequence (O43741 whole entry): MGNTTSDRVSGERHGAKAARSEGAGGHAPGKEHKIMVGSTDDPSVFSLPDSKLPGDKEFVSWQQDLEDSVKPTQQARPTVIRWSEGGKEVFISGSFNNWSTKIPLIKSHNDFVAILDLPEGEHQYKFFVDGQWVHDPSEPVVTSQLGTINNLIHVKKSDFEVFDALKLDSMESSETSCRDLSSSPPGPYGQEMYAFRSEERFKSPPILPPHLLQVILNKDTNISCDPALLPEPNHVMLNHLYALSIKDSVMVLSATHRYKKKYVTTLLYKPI
Sequence (P54619 whole entry partner): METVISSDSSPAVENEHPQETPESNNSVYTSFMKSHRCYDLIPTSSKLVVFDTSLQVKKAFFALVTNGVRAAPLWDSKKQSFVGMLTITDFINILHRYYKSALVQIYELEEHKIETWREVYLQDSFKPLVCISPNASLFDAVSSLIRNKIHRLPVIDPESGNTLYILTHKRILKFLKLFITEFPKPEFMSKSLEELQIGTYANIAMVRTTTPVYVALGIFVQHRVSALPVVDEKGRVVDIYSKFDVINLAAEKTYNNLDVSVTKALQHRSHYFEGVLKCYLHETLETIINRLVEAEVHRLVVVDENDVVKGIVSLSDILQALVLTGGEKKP
Assay: Biochemical profiling of AMPK activators by AMPK221 (HTRF/TR-FRET assay, SAMS peptide, PP2A dephosphorylation protection)
Conditions: phosphorylated AMPK 221; maximal activation
result type: Emax (%)

- Cc1ccc(-c2ccc(-c3cc4c(CCC(=O)O)n[nH]c4cc3Cl)cc2)c(O)c1: 50
- Cc1cscc1-c1ccc(-c2cc3c(CCC(=O)O)n[nH]c3cc2Cl)cc1: 21
- Cc1cc(C)c(-c2ccc(-c3cc4c(CCC(=O)O)n[nH]c4cc3Cl)cc2)c(O)c1: 64
- O=C(O)CCc1n[nH]c2cc(Cl)c(-c3ccc(-c4c(Cl)ccc(F)c4O)cc3)cc12: 63
- O=C(O)CCc1n[nH]c2cc(Cl)c(-c3ccc(-c4csc(CO)c4)cc3)cc12: 57
- COc1ccc(-c2ccc(-c3cc4c(CCC(=O)O)n[nH]c4cc3Cl)cc2)c(O)c1: 56
- Cc1cncc(O)c1-c1ccc(-c2cc3c(CCC(=O)O)n[nH]c3cc2Cl)cc1: 62
- NS(=O)(=O)c1ccc(-c2ccc(-c3cc4c(CCC(=O)O)n[nH]c4cc3Cl)cc2)c(O)c1: 68

====

Biological target: AMPK 221 (Homo sapiens, UniProt O43741+P54646)
Construct: open reading frames encoding the full-length α2, β2 and δ1 subunits of human AMPK; made in house; host or cells: E. coli BL21-CodonPlus (DE3)-RIPL, pET-14b
Assay: Biochemical profiling of AMPK activators by AMPK221 (HTRF/TR-FRET assay, SAMS peptide, PP2A dephosphorylation protection)
Settings: phosphorylated AMPK 221; maximal activation
Procedure: The biochemical EC50 (half-maximal concentration required for full activation) of compounds for the activation of AMPK was evaluated by HTRF assay using LANCE Ultra ULight-Acetyl-CoA Carboxylase (SAMS) peptide (commercially available, Perkin Elmer catalog TRF0133-M). […]
Would you mind labelling by Emax? At or over 40% is TRUE, under is FALSE.

- O=C(O)CCc1n[nH]c2cc(Cl)c(-c3ccc(-c4cccc(CO)c4)cc3)cc12: FALSE
- O=C(O)CSc1n[nH]c2cc(Cl)c(-c3ccc(-c4ccccc4O)cc3)cc12: TRUE
- O=C(O)CCc1c[nH]c2cc(Cl)c(-c3ccc(-c4ccccc4O)cc3)cc12: FALSE
- O=C(O)CCc1n[nH]c2cc(Cl)c(-c3ccc(-c4ccccc4O)cc3F)cc12: TRUE
- CN(C)C(=O)c1ccc(-c2ccc(-c3cc4c(CCC(=O)O)n[nH]c4cc3Cl)cc2)c(O)c1: TRUE
- O=C(O)CCc1n[nH]c2cc(Cl)c(-c3ccc(-c4ccncc4O)cc3)cc12: TRUE
- NC(=O)c1ccc(-c2ccc(-c3cc4c(CCC(=O)O)n[nH]c4cc3Cl)cc2)c(O)c1: TRUE

====

Target: AMPK 221 (Homo sapiens, UniProt O43741+P54646)
Construct: open reading frames encoding the full-length α2, β2 and δ1 subunits of human AMPK
Assay: Biochemical profiling of AMPK activators by AMPK221 (HTRF/TR-FRET assay, SAMS peptide, PP2A dephosphorylation protection)
Conditions: phosphorylated AMPK 221 (α2β2δ1); 11 point dilution, duplicate; 4-parameter fit
pEC50: −log10 of the molar value.
result type: pEC50

• N#Cc1cccc(-c2ccc(-c3cc4c(CCC(=O)O)n[nH]c4cc3Cl)cc2)c1O = 6.41
• CN(C)C(=O)c1ccc(-c2ccc(-c3cc4c(CCC(=O)O)n[nH]c4cc3Cl)cc2)cc1 = 6.79
• CNC(=O)c1ccc(-c2ccc(-c3cc4c(CCC(=O)O)n[nH]c4cc3Cl)cc2)cc1 = 7.89
• O=C(O)CCc1n[nH]c2cc(Cl)c(-c3ccc(-c4cccc(OC(F)F)c4O)cc3)cc12 = 6.37
• COc1ccc(Cl)c(-c2ccc(-c3cc4c(CCC(=O)O)n[nH]c4cc3Cl)cc2)c1O = 7.14
• COc1cc(O)c(-c2ccc(-c3cc4c(CCC(=O)O)n[nH]c4cc3Cl)cc2)c(Cl)c1 = 6.49
• CS(=O)(=O)Nc1ccc(-c2ccc(-c3cc4c(CCC(=O)O)n[nH]c4cc3Cl)cc2)cc1 = 6.70
• CNC(=O)c1ccc(-c2ccc(-c3cc4c(CCC(=O)O)n[nH]c4cc3Cl)cc2)c(O)c1 = 8.30
• O=C(O)CCc1n[nH]c2cc(Cl)c(-c3ccc(-c4ccccc4O)cc3F)cc12 = 6.28
• O=C(O)CCc1n[nH]c2cc(Cl)c(-c3ccc(-c4csc(CO)c4)cc3)cc12 = 6.24
• O=C(O)CNc1n[nH]c2cc(Cl)c(-c3ccc(-c4ccccc4O)cc3)cc12 = 6.84
• COc1cc(F)cc(-c2ccc(-c3cc4c(CCC(=O)O)n[nH]c4cc3Cl)cc2)c1O = 6.61
• O=C(O)CCc1c[nH]c2cc(Cl)c(-c3ccc(-c4ccccc4O)cc3)cc12 = 6.18
• O=C(O)CCc1n[nH]c2cc(Cl)c(-c3ccc(-c4cccc(F)c4O)cc3)cc12 = 7.00
• O=C(O)CCc1n[nH]c2cc(Cl)c(-c3ccc(-c4ccncc4O)cc3)cc12 = 6.44
• O=C(O)CCc1n[nH]c2cc(Cl)c(-c3ccc(-c4ccc(F)c(F)c4O)cc3)cc12 = 6.00
• O=C(O)CCc1n[nH]c2cc(Cl)c(-c3ccc(-c4c(O)cccc4Cl)cc3)cc12 = 6.57

====

Entries and their Emax values follow.
Molecular target: AMPK 221 (Homo sapiens, UniProt O43741+P54646)
Construct: open reading frames encoding the full-length α2, β2 and δ1 subunits of human AMPK; made in house; host or cells: E. coli BL21-CodonPlus (DE3)-RIPL, pET-14b
Experiment: Biochemical profiling of AMPK activators by AMPK221 (HTRF/TR-FRET assay, SAMS peptide, PP2A dephosphorylation protection)
Details: phosphorylated AMPK 221; maximal activation
result type: Emax (%)

- COc1ccc(Cl)c(-c2ccc(-c3cc4c(CCC(=O)O)n[nH]c4cc3Cl)cc2)c1O [Example 14]: 65
- COc1nc(-c2ccc(-c3cc4c(CCC(=O)O)n[nH]c4cc3Cl)cc2)cs1 [Example 59]: 13
- O=C(O)CCc1n[nH]c2cc(Cl)c(-c3ccc(-c4c(O)cccc4Cl)cc3)cc12 [Example 46]: 59
- O=C(O)CCc1n[nH]c2cc(Cl)c(-c3ccc(-c4ccc(C(=O)NCCCO)cc4)cc3)cc12 [Example 77]: 58
- O=C(O)CCc1n[nH]c2cc(Cl)c(-c3ccc(-c4csc(CO)n4)cc3)cc12 [Example 66]: 63
- CNC(=O)c1ccc(-c2ccc(-c3cc4c(CCC(=O)O)n[nH]c4cc3Cl)cc2)c(O)c1 [Example 23]: 56
- COc1cc(O)c(-c2ccc(-c3cc4c(CCC(=O)O)n[nH]c4cc3Cl)cc2)c(Cl)c1 [Example 49]: 61
- NS(=O)(=O)c1ccc(-c2ccc(-c3cc4c(CCC(=O)O)n[nH]c4cc3Cl)cc2)cc1 [Example 40]: 68
- O=C(O)CCc1n[nH]c2cc(Cl)c(-c3ccc(-c4cccc(Cl)c4O)cc3)cc12 [Example 45]: 66
- CC(=O)NCc1ccc(-c2ccc(-c3cc4c(CCC(=O)O)n[nH]c4cc3Cl)cc2)cc1 [Example 41]: 65
- O=C(O)CCc1n[nH]c2cc(F)c(-c3ccc(-c4ccccc4O)cc3)cc12 [Example 33]: 57
- O=C(O)CCc1n[nH]c2cc(Cl)c(-c3ccc(-c4cccc(F)c4O)cc3)cc12 [Example 22]: 59
- N#Cc1cccc(-c2ccc(-c3cc4c(CCC(=O)O)n[nH]c4cc3Cl)cc2)c1O [Example 55]: 38
- O=C(O)CCc1n[nH]c2cc(Cl)c(-c3ccc(-c4cc(F)ccc4O)cc3)cc12 [Example 70]: 49
- O=C(O)CCc1n[nH]c2cc(Cl)c(-c3ccc(-c4ccccc4)cc3)cc12 [Example 51]: 22
- O=C(O)CCc1n[nH]c2cc(Cl)c(-c3ccc(-c4ccc(C(=O)O)cc4O)cc3)cc12 [Example 36]: 49
- NC(=O)COc1ccc(-c2ccc(-c3cc4c(CCC(=O)O)n[nH]c4cc3Cl)cc2)cc1 [Example 72]: 114
- NC(=O)c1ccc(-c2ccc(-c3cc4c(CCC(=O)O)n[nH]c4cc3Cl)cc2)cc1 [Example 5]: 62
- CN(C)C(=O)c1ccc(-c2ccc(-c3cc4c(CCC(=O)O)n[nH]c4cc3Cl)cc2)cc1 [Example 29]: 63
- NC(=O)Cc1ccc(-c2ccc(-c3cc4c(CCC(=O)O)n[nH]c4cc3Cl)cc2)cc1 [Example 30]: 65
- Cc1ccccc1-c1ccc(-c2cc3c(CCC(=O)O)n[nH]c3cc2Cl)cc1 [Example 48]: 9
- COc1cccc(-c2ccc(-c3cc4c(CCC(=O)O)n[nH]c4cc3Cl)cc2)c1O [Example 2]: 66
- O=C(O)CCCc1n[nH]c2cc(Cl)c(-c3ccc(-c4ccccc4O)cc3)cc12 [Example 43]: 62
- N#Cc1cc2[nH]nc(CCC(=O)O)c2cc1-c1ccc(-c2ccccc2O)cc1 [Example 35]: 47
- COc1ccc(-c2ccc(-c3cc4c(CCC(=O)O)n[nH]c4cc3Cl)cc2)c(O)c1OC [Example 52]: 65
- O=C(O)CCc1n[nH]c2cc(Cl)c(-c3ccc(-c4ccccc4O)cc3)cc12 [Example 1]: 57
- O=C(O)CCc1n[nH]c2cc(Cl)c(-c3ccc(-c4c(O)cccc4F)cc3)cc12 [Example 50]: 55
- COc1cccc(-c2ccc(-c3cc4c(CCCC(=O)O)n[nH]c4cc3Cl)cc2)c1O [Example 74]: 69
- Cn1c(O)nc2cc(-c3ccc(-c4cc5c(CCC(=O)O)n[nH]c5cc4Cl)cc3)ccc21 [Example 53]: 55
- O=C(O)CCc1n[nH]c2cc(Cl)c(-c3ccc(-c4ccccc4O)cc3)nc12 [Example 73]: 30
- COc1ccc(C)c(-c2ccc(-c3cc4c(CCCC(=O)O)n[nH]c4cc3Cl)cc2)c1O [Example 78]: 66
- O=C(O)CCc1n[nH]c2cc(Cl)c(-c3ccc(-c4cnsc4)cc3)cc12 [Example 65]: 58
- COc1c(F)ccc(-c2ccc(-c3cc4c(CCC(=O)O)n[nH]c4cc3Cl)cc2)c1O [Example 16]: 64
